Tested on: CCRF-CEM leukemia
Experiment: NCI tumour cell line growth inhibition, 48 h; in the data active means GI50 below about 0.43 µM; inactive means the rest
Answer with one of the outcomes active, inactive

# sample.smiles, class.label
measured = [
    ("CC(C)Nc1ccc(Nc2ccccc2)cc1", "inactive"),
    ("CC/C(=C(/c1ccc(OCCN(C)C)cc1)c1ccc(OC(=O)CCC(=O)c2c(C)[nH]c(/C=C3\\N=C(c4ccc[nH]4)C=C3OC)c2C)cc1)c1ccccc1", "inactive"),
    ("C/C=C/C/C=C/CCC(=O)[C@H]1O[C@H]1C(N)=O", "inactive"),
    ("S=C(N/N=C(/c1ccccc1)c1ccccn1)N1CCCCC1", "active"),
    ("CCOc1ccc(-c2cnnn2-c2nonc2-n2cccc2)cc1", "active"),
    ("Clc1cc2c(cc1Cl)Oc1cc(Cl)c(Cl)cc1O2", "inactive"),
]

Could you now consider this next compound?
Can you look up the reported call for CCOc1ccccc1NC(=O)c1cc2ccccc2cc1O for me? inactive
